src = ChEMBL document CHEMBL3044590

- Tested on: Bursaphelenchus xylophilus
- Protocol Description: Nematicidal activity against Bursaphelenchus xylophilus assessed as nematode mortality at 2 mg/mL measured 24 hr post dose by microscopy
- Type: functional
The molecules listed here are annotated with their mortality at 2000 µg/mL.
Respond numerically; units are % and should not be typed.

Here is how some molecules turned out for mortality at 2000 µg/mL.
molecule="O=Cc1ccccc1 [BENZALDEHYDE]" assayed_target="Bursaphelenchus xylophilus" measurement=100
molecule="OCCCc1ccccc1 [HYDROCINNAMYL ALCOHOL]" assayed_target="Bursaphelenchus xylophilus" measurement=17.2
molecule="OCc1ccccc1 [BENZYL ALCOHOL]" assayed_target="Bursaphelenchus xylophilus" measurement=3.8
molecule="OC/C=C/c1ccccc1 [CINNAMIC ALCOHOL]" assayed_target="Bursaphelenchus xylophilus" measurement=100
molecule="CCCCCCCCCC=O [DECANAL]" assayed_target="Bursaphelenchus xylophilus" measurement=100

Here is the next item to consider.
Reported mortality at 2000 µg/mL, molecule CCCCCCCCCCCC=O [DODECANAL] : ____
100
